- measurement target: soluble guanylate cyclase (sGC) (Homo sapiens (Human), UniProt Q02108+Q02153)
- Sequence (Q02153 whole entry): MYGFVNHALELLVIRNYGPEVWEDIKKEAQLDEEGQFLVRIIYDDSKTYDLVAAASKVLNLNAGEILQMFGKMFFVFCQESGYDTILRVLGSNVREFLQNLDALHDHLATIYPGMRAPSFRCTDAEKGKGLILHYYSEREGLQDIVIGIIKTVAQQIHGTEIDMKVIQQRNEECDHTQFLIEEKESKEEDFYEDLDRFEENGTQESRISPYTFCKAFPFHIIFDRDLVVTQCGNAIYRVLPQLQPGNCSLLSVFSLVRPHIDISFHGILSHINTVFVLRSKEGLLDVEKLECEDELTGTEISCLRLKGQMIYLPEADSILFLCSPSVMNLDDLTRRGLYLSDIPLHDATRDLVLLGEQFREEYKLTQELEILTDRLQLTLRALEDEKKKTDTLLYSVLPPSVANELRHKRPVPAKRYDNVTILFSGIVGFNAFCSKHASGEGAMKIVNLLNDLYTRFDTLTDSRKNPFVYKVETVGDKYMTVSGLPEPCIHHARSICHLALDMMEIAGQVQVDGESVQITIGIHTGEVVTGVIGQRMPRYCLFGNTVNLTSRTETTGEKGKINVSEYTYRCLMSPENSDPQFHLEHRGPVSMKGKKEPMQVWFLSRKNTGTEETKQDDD
- Sequence (Q02108 whole entry): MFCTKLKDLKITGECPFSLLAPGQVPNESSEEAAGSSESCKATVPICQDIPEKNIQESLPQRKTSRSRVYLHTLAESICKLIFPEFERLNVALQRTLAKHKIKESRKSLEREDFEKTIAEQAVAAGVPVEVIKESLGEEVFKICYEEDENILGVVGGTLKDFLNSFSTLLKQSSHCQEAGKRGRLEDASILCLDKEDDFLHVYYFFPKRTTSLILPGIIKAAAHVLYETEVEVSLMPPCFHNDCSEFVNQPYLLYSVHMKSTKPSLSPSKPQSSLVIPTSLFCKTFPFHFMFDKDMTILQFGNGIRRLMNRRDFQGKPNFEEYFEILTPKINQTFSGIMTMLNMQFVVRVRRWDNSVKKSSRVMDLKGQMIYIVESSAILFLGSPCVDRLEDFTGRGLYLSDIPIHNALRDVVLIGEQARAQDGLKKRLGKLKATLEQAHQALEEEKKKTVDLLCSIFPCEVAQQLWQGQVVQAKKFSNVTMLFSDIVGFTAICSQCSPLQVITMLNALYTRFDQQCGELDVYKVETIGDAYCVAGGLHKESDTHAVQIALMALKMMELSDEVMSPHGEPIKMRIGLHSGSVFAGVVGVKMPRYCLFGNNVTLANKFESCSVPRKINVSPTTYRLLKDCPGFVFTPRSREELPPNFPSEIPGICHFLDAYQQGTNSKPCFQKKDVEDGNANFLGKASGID
- test name: sGC-HEK-cGMP assay, new protocol with DETA-NONOate, LC/MS detection (Example 2C)
- Type: cell-based
- setup conditions: read-out: Absolute EC50 (uM) - binned

compound | measurement target | EC50
NCC(O)CNc1nc(-c2cc(-c3ccon3)n(Cc3ccccc3F)n2)ncc1F (stereo not drawn) | soluble guanylate cyclase (sGC) (Homo sapiens (Human), UniProt Q02108+Q02153) | > 1 µM
CC(=O)OC(C(=O)Nc1ccnc(-c2cc(-c3ccon3)n(Cc3ccccc3F)n2)n1)c1ccccc1 (stereo not drawn) | soluble guanylate cyclase (sGC) (Homo sapiens (Human), UniProt Q02108+Q02153) | 0.101 to 1 µM
CN(CC(O)(C(F)(F)F)C(F)(F)F)c1nc(-c2cc(-c3ccon3)n(Cc3ccccc3F)n2)ncc1F | soluble guanylate cyclase (sGC) (Homo sapiens (Human), UniProt Q02108+Q02153) | > 1 µM
OCC(CO)(CO)Nc1nc(-c2cc(-c3ccon3)n(Cc3ccccc3F)n2)ncc1F | soluble guanylate cyclase (sGC) (Homo sapiens (Human), UniProt Q02108+Q02153) | 0.101 to 1 µM
CC(C(=O)Nc1ccnc(-c2cc(-c3ccon3)n(Cc3ccccc3F)n2)n1)S(C)(=O)=O (stereo not drawn) | soluble guanylate cyclase (sGC) (Homo sapiens (Human), UniProt Q02108+Q02153) | 0.101 to 1 µM
Oc1c(F)cc(CNc2nc(-c3cc(-c4ccon4)n(Cc4ccccc4F)n3)ncc2F)cc1F | soluble guanylate cyclase (sGC) (Homo sapiens (Human), UniProt Q02108+Q02153) | < 0.1 µM
Fc1ccccc1Cn1nc(-c2ncc(F)c(NC3CCOC3)n2)cc1-c1ccon1 (stereo not drawn) | soluble guanylate cyclase (sGC) (Homo sapiens (Human), UniProt Q02108+Q02153) | < 0.1 µM
OCC(CC(F)F)Nc1nc(-c2cc(-c3ccon3)n(Cc3ccccc3F)n2)ncc1F (stereo not drawn) | soluble guanylate cyclase (sGC) (Homo sapiens (Human), UniProt Q02108+Q02153) | < 0.1 µM
OCC1(Nc2nc(-c3cc(-c4ccon4)n(Cc4ccccc4F)n3)ncc2F)CC1 | soluble guanylate cyclase (sGC) (Homo sapiens (Human), UniProt Q02108+Q02153) | 0.101 to 1 µM
CN(C[C@H](O)CO)c1nc(-c2cc(-c3ccon3)n(Cc3ccccc3F)n2)ncc1F | soluble guanylate cyclase (sGC) (Homo sapiens (Human), UniProt Q02108+Q02153) | < 0.1 µM
N#CC1(C(=O)Nc2nc(-c3cc(-c4ccon4)n(Cc4ccccc4F)n3)ncc2F)CC1 | soluble guanylate cyclase (sGC) (Homo sapiens (Human), UniProt Q02108+Q02153) | > 1 µM
NCCNc1nc(-c2cc(-c3ccon3)n(Cc3ccccc3F)n2)ncc1F | soluble guanylate cyclase (sGC) (Homo sapiens (Human), UniProt Q02108+Q02153) | 0.101 to 1 µM
O=C(Nc1nc(-c2cc(-c3ccon3)n(Cc3ccccc3F)n2)ncc1F)N1CCOCC1 | soluble guanylate cyclase (sGC) (Homo sapiens (Human), UniProt Q02108+Q02153) | > 1 µM
O=[N+]([O-])c1cnc(-c2cc(-c3ccon3)n(Cc3ccccc3F)n2)nc1NCC(O)(C(F)(F)F)C(F)(F)F | soluble guanylate cyclase (sGC) (Homo sapiens (Human), UniProt Q02108+Q02153) | > 1 µM
CN(CC(C)(C)C(=O)O)c1nc(-c2cc(-c3ccon3)n(Cc3ccccc3F)n2)ncc1F | soluble guanylate cyclase (sGC) (Homo sapiens (Human), UniProt Q02108+Q02153) | < 0.1 µM
C[C@H]1[C@@H](C(=O)O)CCCN1c1nc(-c2cc(-c3ccon3)n(Cc3ccccc3F)n2)ncc1F | soluble guanylate cyclase (sGC) (Homo sapiens (Human), UniProt Q02108+Q02153) | 0.101 to 1 µM
CC1(C(=O)O)CCCN(c2nc(-c3cc(-c4ccon4)n(Cc4ccccc4F)n3)ncc2F)C1 (stereo not drawn) | soluble guanylate cyclase (sGC) (Homo sapiens (Human), UniProt Q02108+Q02153) | < 0.1 µM
CC1(C(=O)O)CCN(c2nc(-c3cc(-c4ccon4)n(Cc4ccccc4F)n3)ncc2F)C1=O (stereo not drawn) | soluble guanylate cyclase (sGC) (Homo sapiens (Human), UniProt Q02108+Q02153) | 0.101 to 1 µM
O=C(Nc1ccnc(-c2cc(-c3ccon3)n(Cc3ccccc3F)n2)n1)c1cnco1 | soluble guanylate cyclase (sGC) (Homo sapiens (Human), UniProt Q02108+Q02153) | > 1 µM
O=C(Nc1ccnc(-c2cc(-c3ccon3)n(Cc3ccccc3F)n2)n1)C1(OCc2ccccc2)CCOCC1 | soluble guanylate cyclase (sGC) (Homo sapiens (Human), UniProt Q02108+Q02153) | > 1 µM
CN(C)S(=O)(=O)NCC(=O)Nc1ccnc(-c2cc(-c3ccon3)n(Cc3ccccc3F)n2)n1 | soluble guanylate cyclase (sGC) (Homo sapiens (Human), UniProt Q02108+Q02153) | 0.101 to 1 µM
OCC1(O)CCN(c2nc(-c3cc(-c4ccon4)n(Cc4ccccc4F)n3)ncc2F)CC1 | soluble guanylate cyclase (sGC) (Homo sapiens (Human), UniProt Q02108+Q02153) | < 0.1 µM
CC(C)(C)OC(=O)NCC(=O)Nc1ccnc(-c2cc(-c3ccon3)n(Cc3ccccc3F)n2)n1 | soluble guanylate cyclase (sGC) (Homo sapiens (Human), UniProt Q02108+Q02153) | 0.101 to 1 µM
CC(C)(C)OC(=O)NCCNc1nc(-c2cc(-c3ccon3)n(Cc3ccccc3F)n2)ncc1F | soluble guanylate cyclase (sGC) (Homo sapiens (Human), UniProt Q02108+Q02153) | < 0.1 µM
O=S(=O)(CCNc1nc(-c2cc(-c3ccon3)n(Cc3ccccc3F)n2)ncc1F)NCC(F)(F)F | soluble guanylate cyclase (sGC) (Homo sapiens (Human), UniProt Q02108+Q02153) | < 0.1 µM
Cc1nnc(CNc2nc(-c3cc(-c4ccon4)n(Cc4ccccc4F)n3)ncc2F)o1 | soluble guanylate cyclase (sGC) (Homo sapiens (Human), UniProt Q02108+Q02153) | < 0.1 µM
OC(CNc1nc(-c2cc(-c3ccon3)n(Cc3cccc(F)c3F)n2)ncc1F)(C(F)(F)F)C(F)(F)F | soluble guanylate cyclase (sGC) (Homo sapiens (Human), UniProt Q02108+Q02153) | 0.101 to 1 µM
O=C(O)C12CC1CN(c1nc(-c3cc(-c4ccon4)n(Cc4ccccc4F)n3)ncc1F)C2 (stereo not drawn) | soluble guanylate cyclase (sGC) (Homo sapiens (Human), UniProt Q02108+Q02153) | 0.101 to 1 µM
O=C(O)C(O)(CNc1nc(-c2cc(-c3ccon3)n(Cc3cccc(F)c3F)n2)ncc1F)C(F)(F)F (stereo not drawn) | soluble guanylate cyclase (sGC) (Homo sapiens (Human), UniProt Q02108+Q02153) | > 1 µM
CC(=O)OCC(=O)Nc1ccnc(-c2cc(-c3ccon3)n(Cc3ccccc3F)n2)n1 | soluble guanylate cyclase (sGC) (Homo sapiens (Human), UniProt Q02108+Q02153) | 0.101 to 1 µM
